Molecular target: human recombinant renin (Homo sapiens (Human))
Sequence (P00797 67-406): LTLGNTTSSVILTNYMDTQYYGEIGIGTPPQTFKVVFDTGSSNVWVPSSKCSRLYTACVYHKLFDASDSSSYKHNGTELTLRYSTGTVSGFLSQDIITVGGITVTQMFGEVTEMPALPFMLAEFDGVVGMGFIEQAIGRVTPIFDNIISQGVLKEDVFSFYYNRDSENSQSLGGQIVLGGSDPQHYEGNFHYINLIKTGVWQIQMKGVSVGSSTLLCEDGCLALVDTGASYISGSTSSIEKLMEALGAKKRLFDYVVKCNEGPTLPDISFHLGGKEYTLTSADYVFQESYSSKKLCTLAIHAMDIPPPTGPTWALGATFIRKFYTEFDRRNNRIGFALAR
Assay: human renin activity inhibition (SensoLyte 520 Renin Assay Kit Fluorimetric)
Assay type: biochemical
Settings: 30 min preincubation at 37° C., fluorescence at 530 nm after 15 min at 37° C., read-out: IC50 (nM), inhibitory effect on human renin activity
So I've got a bunch of molecules here, and I need their IC50 values.

Data request: So what's the measured IC50 for this one? CO[C@H]1C[C@H](Nc2cc(C3CC3)cnc2C(=O)N(CC(C)C)[C@@H]2CNC[C@H](c3nnco3)C2)C1 [Compound 40]
Data returned: < 10 nM

Data request: So what's the measured IC50 for this one? CO[C@H]1C[C@H](Nc2cc(C3CC3)cnc2C(=O)N(CC2CC2)[C@@H]2CNCC(c3nnco3)C2)C1 (stereo in doubt) [Compound 44]
Data returned: < 10 nM

Data request: So what's the measured IC50 for this one? CC[C@H]1COCCN1C(=O)[C@H]1CNC[C@@H](N(CC(C)C)C(=O)c2ncc(C3CC3)cc2N[C@H]2C[C@H](OC)C2)C1 [Compound 27]
Data returned: < 250 nM

Data request: So what's the measured IC50 for this one? CO[C@H]1C[C@H](Nc2cc(C3CC3)nnc2C(=O)N(CC(C)C)[C@@H]2CNC[C@H](C(=O)N3CCOC[C@@H]3C)C2)C1 [Compound 33]
Data returned: < 250 nM

Data request: So what's the measured IC50 for this one? CC(C)CN(C(=O)c1ncc(C2CC2)cc1NC1CCC1)C1CNCC(C(=O)N2CCOCC2)C1 (stereo not shown) [Compound 20]
Data returned: 1.9 nM

Data request: So what's the measured IC50 for this one? CO[C@H]1C[C@H](Nc2cccnc2C(=O)N(CC(C)C)[C@@H]2CNCC(c3nnc(C4CC4)o3)C2)C1 (stereo partly shown) [Compound 31]
Data returned: < 10 nM

Data request: So what's the measured IC50 for this one? CO[C@H]1C[C@H](Nc2nc(C(C)(C)C)ncc2C(=O)N(CC(C)C)C2CNCC(C(=O)N3CCOCC3)C2)C1 (stereo partly shown) [Compound 17]
Data returned: 1.5 nM

Just for reference, patent US20240327385A1 is where these values come from.
